assayedTarget: Sodium-dependent noradrenaline transporter (Homo sapiens, UniProt P23975)
Sequence (P23975 whole entry): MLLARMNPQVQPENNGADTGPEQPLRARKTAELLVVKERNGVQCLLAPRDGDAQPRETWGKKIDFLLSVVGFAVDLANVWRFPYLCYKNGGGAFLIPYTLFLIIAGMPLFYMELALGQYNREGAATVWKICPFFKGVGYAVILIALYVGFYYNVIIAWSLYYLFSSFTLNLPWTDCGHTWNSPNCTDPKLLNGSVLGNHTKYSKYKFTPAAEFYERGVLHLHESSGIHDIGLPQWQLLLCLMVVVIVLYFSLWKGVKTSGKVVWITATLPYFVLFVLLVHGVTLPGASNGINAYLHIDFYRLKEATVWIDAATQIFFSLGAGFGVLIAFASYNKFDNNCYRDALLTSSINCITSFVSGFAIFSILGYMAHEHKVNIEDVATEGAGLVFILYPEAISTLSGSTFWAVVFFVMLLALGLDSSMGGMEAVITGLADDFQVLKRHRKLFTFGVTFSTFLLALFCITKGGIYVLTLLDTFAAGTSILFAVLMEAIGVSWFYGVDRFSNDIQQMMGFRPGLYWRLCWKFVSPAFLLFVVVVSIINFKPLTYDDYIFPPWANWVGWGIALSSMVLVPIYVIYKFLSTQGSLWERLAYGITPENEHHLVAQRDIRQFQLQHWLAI
methodDescription: Inhibition of [3H]-NE reuptake in human NET transfected into HEK293 cells at 1 uM by liquid scintillation counting method relative to […]
Assay type: cell-based
parameter: fold change (FC)

a. c1ccc(CC2CCN(CCN3CCN(c4ccccn4)CC3)CC2)cc1
b. COc1ccccc1N1CCN(CCN2CCC(Cc3ccccc3)CC2)CC1
c. c1ccc(CC2CCN(CCN3CCN(c4ncccn4)CC3)CC2)cc1
d. Clc1cccc(N2CCN(CCN3CCC(Cc4ccccc4)CC3)CC2)c1Cl
I would appreciate it if you could sort these 4 compounds by fold change (FC), starting from the smallest number. Answer with the labels in sequence, matching the requested order. c, a, b, d

The measured values listed here are drawn from ChEMBL document CHEMBL3774305.
